Biological target: T1, WT G-CSFR(Ig-CRH), purified, tag cleaved (human, UniProt Q99062 26-331)
T1 construct: also called G-CSFRWT; wild type G-CSFR(Ig-CRH)
T1 chain: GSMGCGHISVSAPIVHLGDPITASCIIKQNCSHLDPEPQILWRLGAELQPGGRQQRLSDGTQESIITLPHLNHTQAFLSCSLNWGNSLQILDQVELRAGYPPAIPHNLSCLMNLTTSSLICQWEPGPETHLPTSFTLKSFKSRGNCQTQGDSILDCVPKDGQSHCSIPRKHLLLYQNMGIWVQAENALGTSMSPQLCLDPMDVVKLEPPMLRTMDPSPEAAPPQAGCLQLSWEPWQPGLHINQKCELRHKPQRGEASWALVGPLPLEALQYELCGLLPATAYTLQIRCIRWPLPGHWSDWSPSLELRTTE
Test: SPR, WT G-CSFR(Ig-CRH) amine-coupled, G-CSFE injected, single-cycle kinetics
REPORTED_ENDPOINT: KD fold change (against WT:WT)

Item under review: design 9 G-CSFE, tag cleaved (ligand, also called design 9 G-CSFE mutant) TPLGPASSLPQSFLLKCLEQVRKIQGDGAALQEKLCATYKLCHPEELVLLGHSLGIPWAPLSSCPSQALQLAGCLSQLHSGLFLYQGLLQALEGISPELGPTLRTLQKDVARFATTIWRQMKELGMAPALQPTQGAMPAFASAFQRRAGGVLVASHLQSFLEVSYRVLRHLAQAAAENLYFQ . Reported KD fold change (against WT:WT)?
79 fold

Item under review: design 30 G-CSFE, tag cleaved (ligand, also called design 30 G-CSFE mutant) TPLGPASSLPQSFLLKCLEQVRKIQGDGAALQEKLCATYKLCHPEELVLLGHSLGIPWAPLSSCPSQALQLAGCLSQLHSGLFLYQGLLQALEGISPELGPTLDTLQKDVARFATTIWQQMEELGMAPALQPTQGAMPAFASAFQRRAGGVLVASHLQSFLEVSYRVLRHLAQAAAENLYFQ . Reported KD fold change (against WT:WT)?
20 fold

Item under review: design 35 G-CSFE, tag cleaved (ligand, also called design 35 G-CSFE mutant) TPLGPASSLPQSFLLKCLEQVRKIQGDGAALQEKLCATYKLCHPEELVLLGHSLGIPWAPLSSCPSQALQLAGCLSQLHSGLFLYQGLLQALEGISPELGPTLDTLQLDVADFAKTIWQQMRRLGMAPALQPTQGAMPAFASAFQRRAGGVLVASHLQSFLEVSYRVLRHLAQAAAENLYFQ . Reported KD fold change (against WT:WT)?
5 fold
